Target: recombinant MtbUGM (Mycobacterium tuberculosis, UniProt P9WIQ1)
Construct: made in house
Sequence (P9WIQ1 whole entry): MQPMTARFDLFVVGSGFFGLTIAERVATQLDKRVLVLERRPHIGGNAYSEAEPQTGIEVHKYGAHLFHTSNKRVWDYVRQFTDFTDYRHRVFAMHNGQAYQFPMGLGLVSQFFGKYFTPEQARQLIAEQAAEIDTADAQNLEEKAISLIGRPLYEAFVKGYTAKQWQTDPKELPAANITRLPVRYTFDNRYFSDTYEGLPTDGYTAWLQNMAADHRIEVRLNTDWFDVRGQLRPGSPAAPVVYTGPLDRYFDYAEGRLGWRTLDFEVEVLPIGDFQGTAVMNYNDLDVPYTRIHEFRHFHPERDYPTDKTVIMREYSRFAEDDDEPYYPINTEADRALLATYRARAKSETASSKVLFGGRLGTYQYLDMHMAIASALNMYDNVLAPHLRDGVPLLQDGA
Assay: biochemical
Details: Table 2; standard deviation, n = 3
pIC50: −log10 of the molar value.
I would appreciate it if you labelled entries label 1 when pIC50 is 5 or higher, otherwise label 0.

Example cases with answers are listed next.
[
  {
    "COMPOUND": "O=C(NS(=O)(=O)c1ccc([N+](=O)[O-])cc1)C(Cc1ccc(I)cc1)Nc1nc(-c2ccc(Cl)c(Cl)c2)cs1 (stereo not drawn)",
    "CAT": "label 1"
  },
  {
    "COMPOUND": "O=C(O)C(Cc1ccc(I)cc1)Nc1nc(-c2ccc(Cl)c(Cl)c2)cs1 (stereo not drawn)",
    "CAT": "label 1"
  },
  {
    "COMPOUND": "Cc1ccc(S(=O)(=O)NC(=O)C(Cc2ccc(I)cc2)Nc2nc(-c3ccc(Cl)c(Cl)c3)cs2)cc1 (stereo not drawn)",
    "CAT": "label 1"
  },
  {
    "COMPOUND": "O=C(NS(=O)(=O)c1ccccc1)C(Cc1ccc(I)cc1)Nc1nc(-c2ccc(Cl)c(Cl)c2)cs1 (stereo not drawn)",
    "CAT": "label 1"
  },
  {
    "COMPOUND": "O=C(NS(=O)(=O)c1ccc(Cl)cc1)C(Cc1ccc(I)cc1)Nc1nc(-c2ccc(Cl)c(Cl)c2)cs1 (stereo not drawn)",
    "CAT": "label 1"
  },
  {
    "COMPOUND": "COc1ccc(S(=O)(=O)NC(=O)C(Cc2ccc(I)cc2)Nc2nc(-c3ccc(Cl)c(Cl)c3)cs2)cc1 (stereo not drawn)",
    "CAT": "label 0"
  },
  {
    "COMPOUND": "O=C(NS(=O)(=O)c1ccccc1[N+](=O)[O-])C(Cc1ccc(I)cc1)Nc1nc(-c2ccc(Cl)c(Cl)c2)cs1 (stereo not drawn)",
    "CAT": "label 1"
  }
]

As a next step, examine the compound that follows.
Req: Is it the case that O=C(NS(=O)(=O)C(F)(F)F)C(Cc1ccc(I)cc1)Nc1nc(-c2ccc(Cl)c(Cl)c2)cs1 (stereo not drawn) has pIC50 reaching or exceeding 5?
Resp: label 0

----------
Listing of entries alongside the reported zone of inhibition.
Test system: M. smegmatis
Test: Agar disk diffusion assay
Set-up: dose or concentration left out as unconfirmed
Conditions: Mycolicibacterium smegmatis, read-out: Inhibition zone
Give your result in mm as a bare value.

In the examples that follow, each entry is paired with its recorded zone of inhibition.
[
  {
    "MOLECULE": "COc1ccc(S(=O)(=O)NC(=O)C(Cc2ccc(I)cc2)Nc2nc(-c3ccc(Cl)c(Cl)c3)cs2)cc1 (stereo not drawn) [Compound 6]",
    "PROPERTY_MEASURED": "zone of inhibition",
    "READING": 6
  },
  {
    "MOLECULE": "Cc1ccc(S(=O)(=O)NC(=O)C(Cc2ccc(I)cc2)Nc2nc(-c3ccc(Cl)c(Cl)c3)cs2)cc1 (stereo not drawn) [Compound 7]",
    "PROPERTY_MEASURED": "zone of inhibition",
    "READING": 6
  },
  {
    "MOLECULE": "O=C(O)C(Cc1ccc(I)cc1)Nc1nc(-c2ccc(Cl)c(Cl)c2)cs1 (stereo not drawn) [Compound 1]",
    "PROPERTY_MEASURED": "zone of inhibition",
    "READING": 5
  }
]

Req: Given the entry O=C(NS(=O)(=O)c1ccc([N+](=O)[O-])cc1)C(Cc1ccc(I)cc1)Nc1nc(-c2ccc(Cl)c(Cl)c2)cs1 (stereo not drawn) [Compound 5] , what zone of inhibition was observed with M. smegmatis?
Resp: 4.2

Req: Another: CS(=O)(=O)NC(=O)C(Cc1ccc(I)cc1)Nc1nc(-c2ccc(Cl)c(Cl)c2)cs1 (stereo not drawn) [Compound 2]
Resp: 7

Req: How about O=C(NS(=O)(=O)c1ccccc1[N+](=O)[O-])C(Cc1ccc(I)cc1)Nc1nc(-c2ccc(Cl)c(Cl)c2)cs1 (stereo not drawn) [Compound 9] ?
Resp: 5.7

Req: Next entry: O=C(NS(=O)(=O)c1ccccc1)C(Cc1ccc(I)cc1)Nc1nc(-c2ccc(Cl)c(Cl)c2)cs1 (stereo not drawn) [Compound 4]
Resp: 7.3

Req: O=C(NS(=O)(=O)C(F)(F)F)C(Cc1ccc(I)cc1)Nc1nc(-c2ccc(Cl)c(Cl)c2)cs1 (stereo not drawn) [Compound 3] ?
Resp: 7.7

Req: Cool, now O=C(NS(=O)(=O)c1ccc(Cl)cc1)C(Cc1ccc(I)cc1)Nc1nc(-c2ccc(Cl)c(Cl)c2)cs1 (stereo not drawn) [Compound 8]
Resp: 6.3
